For each entry below, report its LC retention time value.
# PROTOCOL_SUMMARY: RP, Thermo Scientific Acclaim RSLC 120 C18, 100 × 2.1 mm, 2.2 µm, 30 °C, 0.2 mL/min, estimated dead time 1.1 min; A: 90% water + 10% methanol + 0.01% formic acid + 5 mM ammonium formate, pH 3.61; B: methanol + 0.01% formic acid + 5 mM ammonium formate, pH 3.61; gradient (min/%B) 0/1 1/1 2/39 13/99.9 15/99.9 15.1/1 20.1/1
# TEST_CONTEXT: stereoisomer not certain

Some solved entries appear below for comparison.
MOLECULE: CC1(C)C(C(=O)c2cn(CCCCCF)c3ccccc23)C1(C)C [XLR-11]
EXPERIMENTAL_RESULT: 11.9 min
//
MOLECULE: CC(C)(C(=O)O)c1ccc(C(O)CCCN2CCC(C(O)(c3ccccc3)c3ccccc3)CC2)cc1 (configuration not stated) [Fexofenadine]
EXPERIMENTAL_RESULT: 7.68 min
//
MOLECULE: CNC(=O)ON=C(SC)C(=O)N(C)C [Oxamyl]
EXPERIMENTAL_RESULT: 3.77 min
//
MOLECULE: C=CCc1ccccc1OCC(O)CNC(C)C (configuration not stated) [Alprenolol]
EXPERIMENTAL_RESULT: 6.71 min
//
MOLECULE: NCCc1ccccc1 [Phenethylamine (2-)]
EXPERIMENTAL_RESULT: 3.57 min
//
MOLECULE: COC(=O)C(NC(=O)c1nn(Cc2ccc(F)cc2)c2ccccc12)C(C)(C)C (configuration not stated) [MDMB-FUBINACA]
EXPERIMENTAL_RESULT: 11.3 min
//
MOLECULE: CCN(CC)CC(C)(C)COC(=O)c1ccc(N)cc1 [Dimethocain]
EXPERIMENTAL_RESULT: 4.24 min
//
MOLECULE: O=C1CN=C(C2=CCCCC2)c2cc(Cl)ccc2N1 [Tetrazepam-Nor]
EXPERIMENTAL_RESULT: 10.1 min
//
MOLECULE: CC(N)Cc1ccc(F)cc1 (configuration not stated) [Amphetamine (4-F-)]
EXPERIMENTAL_RESULT: 4.39 min
//
MOLECULE: CNC(C)Cc1ccc(O)cc1 (configuration not stated) [Pholedrine (Amphetamine-P-Hydroxy-methyl)]
EXPERIMENTAL_RESULT: 2.91 min

Batch of 8 molecules: report LC retention time for each.
1. CCOC(=O)CC(SP(=S)(OC)OC)C(=O)OCC (configuration not stated) [Malathion]
2. CC(Cc1ccc(C(C)C(=O)O)cc1)C(=O)O (configuration not stated) [Ibuprofen-Carboxy]
3. CC1(C)SC2C(NC(=O)COc3ccccc3)C(=O)N2C1C(=O)O (configuration not stated) [Penicillin V]
4. COP(=O)(OC)Oc1ccc([N+](=O)[O-])cc1 [Paraoxon-methyl]
5. CN(C)CCOC(c1ccccc1)c1ccccc1 [Diphenhydramine]
6. CSC(=O)c1c(C(F)F)nc(C(F)(F)F)c(C(=O)SC)c1CC(C)C [Dithiopyr]
7. CCc1cccc2c3c([nH]c12)C(CC)(CC(=O)O)OCC3 (configuration not stated) [Etodolac]
8. COc1c(C)c2c(c(O)c1CC=C(C)CCC(=O)O)C(=O)OC2 [Mycophenolic acid]

1. 9.59 min
2. 6.99 min
3. 6.8 min
4. 6.36 min
5. 6.63 min
6. 11.7 min
7. 10.6 min
8. 8.79 min

Each recorded value in this set is attributed to the RepoRT retention time repository (doi:10.1021/acs.analchem.2c02893).
